- MEASUREMENT_TARGET: T1, recombinant human αvβ6 extracellular domain (R&D Systems) (human, UniProt P06756 31-992; P18564 22-709)
- T1 construct: extracellular domain; Bought; also called recombinant extracellular αvβ6; purified αvβ6
- T1 sequence (P06756 31-992, chain 1 of 2): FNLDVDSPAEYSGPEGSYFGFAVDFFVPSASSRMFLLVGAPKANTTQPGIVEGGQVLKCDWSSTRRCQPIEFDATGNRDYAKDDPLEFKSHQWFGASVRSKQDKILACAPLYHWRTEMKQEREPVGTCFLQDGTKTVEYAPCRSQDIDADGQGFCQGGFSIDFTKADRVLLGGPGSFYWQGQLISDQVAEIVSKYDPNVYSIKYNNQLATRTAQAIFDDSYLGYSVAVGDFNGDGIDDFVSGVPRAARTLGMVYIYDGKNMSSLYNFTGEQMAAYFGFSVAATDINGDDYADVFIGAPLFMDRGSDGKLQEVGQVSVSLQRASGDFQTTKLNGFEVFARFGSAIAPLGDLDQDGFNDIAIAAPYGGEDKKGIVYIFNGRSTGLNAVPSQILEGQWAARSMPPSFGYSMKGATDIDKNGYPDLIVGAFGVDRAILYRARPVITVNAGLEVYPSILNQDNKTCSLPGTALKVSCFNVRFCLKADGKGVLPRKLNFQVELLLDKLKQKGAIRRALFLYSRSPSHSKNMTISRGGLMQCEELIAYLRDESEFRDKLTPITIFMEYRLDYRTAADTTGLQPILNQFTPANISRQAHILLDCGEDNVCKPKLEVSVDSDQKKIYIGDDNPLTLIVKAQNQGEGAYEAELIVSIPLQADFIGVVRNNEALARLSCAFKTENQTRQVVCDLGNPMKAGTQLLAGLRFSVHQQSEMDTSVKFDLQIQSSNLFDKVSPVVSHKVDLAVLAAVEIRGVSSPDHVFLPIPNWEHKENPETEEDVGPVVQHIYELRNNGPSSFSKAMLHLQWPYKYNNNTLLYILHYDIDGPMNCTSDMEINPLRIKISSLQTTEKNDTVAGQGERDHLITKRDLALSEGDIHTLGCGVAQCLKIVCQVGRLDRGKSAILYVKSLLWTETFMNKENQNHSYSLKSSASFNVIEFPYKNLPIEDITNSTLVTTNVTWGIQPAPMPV
- T1 sequence (P18564 22-709, chain 2 of 2): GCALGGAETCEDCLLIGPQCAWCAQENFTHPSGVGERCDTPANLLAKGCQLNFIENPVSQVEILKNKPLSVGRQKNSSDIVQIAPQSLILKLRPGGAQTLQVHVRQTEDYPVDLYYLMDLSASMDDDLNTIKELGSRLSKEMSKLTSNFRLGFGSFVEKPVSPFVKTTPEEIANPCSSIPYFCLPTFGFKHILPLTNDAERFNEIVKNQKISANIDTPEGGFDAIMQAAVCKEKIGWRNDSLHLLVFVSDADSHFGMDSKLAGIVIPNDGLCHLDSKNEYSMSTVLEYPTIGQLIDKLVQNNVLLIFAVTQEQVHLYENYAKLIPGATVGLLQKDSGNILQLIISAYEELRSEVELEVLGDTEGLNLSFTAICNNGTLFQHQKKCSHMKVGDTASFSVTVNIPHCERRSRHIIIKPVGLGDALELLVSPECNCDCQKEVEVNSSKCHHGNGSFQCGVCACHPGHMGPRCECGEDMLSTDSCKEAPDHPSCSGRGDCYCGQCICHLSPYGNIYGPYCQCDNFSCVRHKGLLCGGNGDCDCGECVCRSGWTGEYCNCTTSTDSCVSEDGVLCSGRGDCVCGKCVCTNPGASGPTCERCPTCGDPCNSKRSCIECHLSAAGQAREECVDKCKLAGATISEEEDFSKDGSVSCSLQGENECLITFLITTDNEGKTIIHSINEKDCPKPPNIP
- ASSAY_TEXT: direct binding to integrin-coated microtiter plates, one site specific binding fit
*1 amine or outer side, *2 acyl side, *3 side chain or, on linkers, in order; H or OH if unused. Where no end group is shown, it is not given here. [ ]: non-standard residue; d: D form. The star is where a group is joined. Biotin = O=C1N[C@H]2[C@H](CS[C@H]2CCCCC(=O)*)N1; βAsp = O=C(O)[C@H](CC(=O)[*:2])N[*:1]
REPORTED_METRIC: Kd (nM)
Answer format: numeric, nM implied, no suffix.

Challenge: # Kd lookup, item Ac-C[βAsp]GRCGVRSSSRTPSDK(Biotin)Y (also: in complex with streptavidin-peroxidase conjugate)
Response given: 1.4
